- test.target: β-catenin (Homo sapiens, UniProt P35222)
- procedure.summary: KD50 measurement using competitive fluorescence polarization (FP) with labelled TCF4
- Type: binding
- condition.label: fluorescence polarization, β-catenin; read-out: β-Cat FP KD
Where a SMILES comes first, the peptide text is derived from it.
Give Kd for every item shown.

Quote β-catenin (Homo sapiens, UniProt P35222) Kd for entry CC[C@H](C)[C@H](NC(=O)[C@H](CC(C)C)NC(=O)[C@@H](NC(=O)[C@H](Cc1c[nH]c2ccccc12)NC(=O)[C@H](CCSC)N(C)C)[C@@H](C)CC)C(=O)N[C@@H](CO)C(=O)N[C@@H](Cc1ccccc1)C(=O)N[C@@H](Cc1c[nH]c2ccccc12)C(=O)NCC(=O)O [compound 264] (HELM PEPTIDE1{[CSCC[C@@H](C(=O)[*:2])N(C)C].W.I.L.I.S.F.W.G}$$$$V2.0) . 1 to 10 µM

Name the recorded Kd of CC[C@H](C)[C@H](NC(=O)[C@@H]1CCC(=O)NCCCC[C@H](N)C(=O)N[C@@H](Cc2c[nH]c3ccccc23)C(=O)N[C@@H](Cc2ccccc2)C(=O)N1)C(=O)N[C@@H](CO)C(=O)N[C@@H](Cc1ccccc1)C(=O)N[C@@H](Cc1c[nH]c2ccccc12)C(=O)NCC(=O)O [compound 208] (HELM PEPTIDE1{K.W.F.E.I.S.F.W.G}$PEPTIDE1,PEPTIDE1,1:R3-4:R3$$$V2.0) , assay system β-catenin (Homo sapiens, UniProt P35222). 1 to 10 µM

---

- test.target: β-catenin (Homo sapiens)
- Sequence (P35222 1-781): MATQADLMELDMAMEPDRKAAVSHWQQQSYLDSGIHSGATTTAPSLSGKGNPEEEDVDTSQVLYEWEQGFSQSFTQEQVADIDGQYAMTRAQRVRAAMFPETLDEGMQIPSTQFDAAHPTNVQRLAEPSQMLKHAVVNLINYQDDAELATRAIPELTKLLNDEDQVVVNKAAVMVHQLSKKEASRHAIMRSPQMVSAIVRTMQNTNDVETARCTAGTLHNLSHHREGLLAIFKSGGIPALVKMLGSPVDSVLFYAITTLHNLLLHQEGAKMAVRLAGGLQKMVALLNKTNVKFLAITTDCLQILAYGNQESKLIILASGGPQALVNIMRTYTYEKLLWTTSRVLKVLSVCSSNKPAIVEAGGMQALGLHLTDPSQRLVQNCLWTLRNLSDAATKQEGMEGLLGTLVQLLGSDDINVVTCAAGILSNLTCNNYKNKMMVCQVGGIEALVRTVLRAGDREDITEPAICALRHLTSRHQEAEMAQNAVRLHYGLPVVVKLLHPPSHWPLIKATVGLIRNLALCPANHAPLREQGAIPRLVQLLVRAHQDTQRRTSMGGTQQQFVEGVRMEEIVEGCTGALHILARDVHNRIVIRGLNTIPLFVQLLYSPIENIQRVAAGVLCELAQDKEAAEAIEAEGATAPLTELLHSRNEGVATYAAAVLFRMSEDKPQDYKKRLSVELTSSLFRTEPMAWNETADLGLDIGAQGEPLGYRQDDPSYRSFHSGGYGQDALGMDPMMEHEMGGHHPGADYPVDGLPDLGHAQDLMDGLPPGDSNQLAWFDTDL
- procedure.summary: KD50 measurement using competitive fluorescence polarization (FP) with labelled TCF4
- Type: binding
- condition.label: fluorescence polarization, β-catenin
Where a SMILES comes first, the peptide text is derived from it.
readout: β-Cat FP Hill slope
Reply briefly: the number, and no unit.

Supply β-Cat FP Hill slope value. Item: CC[C@H](C)[C@@H]1NC(=O)[C@H](CC(C)C)NC(=O)[C@H](Cc2ccccc2)NC(=O)[C@H](Cc2c[nH]c3ccccc23)NC(=O)[C@@H](NC(C)=O)CCCCNC(=O)CC[C@@H](C(=O)O)NC(=O)[C@H](Cc2c[nH]c3ccccc23)NC(=O)[C@H](C)NC(=O)[C@H](CO)NC1=O [compound 187] (HELM PEPTIDE1{[ac].K.W.F.L.I.S.A.W.E}$PEPTIDE1,PEPTIDE1,2:R3-10:R3$$$V2.0) 0.7

Specify β-Cat FP Hill slope for CC[C@H](C)[C@@H]1NC(=O)[C@H](CC(C)C)NC(=O)[C@H](Cc2ccccc2)NC(=O)[C@H](Cc2c[nH]c3ccccc23)NC(=O)[C@@H](N)CCCCNC(=O)CC[C@@H](C(=O)NCC(=O)O)NC(=O)[C@H](Cc2ccccc2)NC(=O)[C@H](CO)NC1=O [compound 227] (HELM PEPTIDE1{K.W.F.L.I.S.F.E.G}$PEPTIDE1,PEPTIDE1,1:R3-8:R3$$$V2.0) and stop. 0.5

Provide only the value of recorded β-Cat FP Hill slope for CC[C@H](C)[C@@H]1NC(=O)[C@H](CC(C)C)NC(=O)[C@H](Cc2ccccc2)NC(=O)[C@H](Cc2c[nH]c3ccccc23)NC(=O)[C@H](CCSC)NC(=O)CCCCCNC(=O)C[C@@H](C(=O)O)NC(=O)[C@H](Cc2c[nH]c3ccccc23)NC(=O)[C@H](Cc2ccccc2)NC(=O)[C@H](CS)NC1=O [compound 189] (HELM PEPTIDE1{[O=C(CCCCCN[*:1])[*:2]].M.W.F.L.I.C.F.W.D}$PEPTIDE1,PEPTIDE1,1:R1-10:R3$$$V2.0) 1.69

---

- condition.label: % Viability non-Wnt responsive cells
Where a SMILES comes first, the peptide text is derived from it.
Kindly supply the reported viability values for the records listed here.
Write down the numeric answer in % and omit the unit.

Name the recorded viability of the item CC[C@H](C)[C@H](NC(=O)[C@H](CC(C)C)NC(=O)[C@H](Cc1ccccc1)NC(=O)[C@H](Cc1c[nH]c2ccccc12)NC(=O)[C@@H](N)CCSC)C(=O)N[C@@H](CS)C(=O)N[C@@H](Cc1ccccc1)C(=O)N[C@@H](Cc1c[nH]c2ccccc12)C(=O)NCC(=O)O [compound 154] (H-MWFLICFWG-OH) in your answer. 103

Determine from records and report viability for CC[C@H](C)[C@H](NC(=O)[C@H](CC(C)C)NC(=O)[C@H](Cc1ccccc1)NC(=O)[C@H](Cc1c[nH]c2ccccc12)NC(=O)[C@H](CCSC)NC(=O)[C@H](CCCNC(=N)N)NC(=O)[C@@H](NC(=O)[C@@H](N)CCSC)[C@@H](C)CC)C(=O)N[C@@H](CS)C(=O)N[C@@H](C)C(=O)N[C@@H](Cc1c[nH]c2ccccc12)C(=O)NCC(=O)O [compound 166] (H-MIRMWFLICAWG-OH) 100

Please report viability for the following compound: CC[C@H](C)[C@H](NC(=O)[C@H](CC(C)C)NC(=O)[C@@H](NC(=O)[C@H](Cc1c[nH]c2ccccc12)NC(=O)[C@@H](N)CCSC)[C@@H](C)CC)C(=O)N[C@@H](CO)C(=O)N[C@@H](Cc1ccc(O)cc1)C(=O)N[C@@H](Cc1c[nH]c2ccccc12)C(=O)NCC(=O)O [compound 152] (H-MWILISYWG-OH) 114

---

For each record, write down the corresponding pKd.
- test.target: β-catenin (Homo sapiens, UniProt P35222)
- procedure.summary: KD50 measurement using competitive fluorescence polarization (FP) with labelled TCF4
- Assay type: binding
- condition.label: fluorescence polarization, β-catenin; read-out: β-Cat FP KD
pKd: −log10 of the molar value. Where a SMILES comes first, the peptide text is derived from it.

Indicate the recorded pKd value for this compound: CC[C@H](C)[C@H](NC(=O)[C@H](CC(C)C)NC(=O)[C@H](Cc1ccccc1)NC(=O)[C@H](Cc1c[nH]c2ccccc12)NC(=O)[C@H](CCSC)NC(C)=O)C(=O)N[C@@H](CO)C(=O)N[C@@H](Cc1ccccc1)C(=O)N[C@@H](Cc1c[nH]c2ccccc12)C(=O)NCC(=O)O [compound 219] (Ac-MWFLISFWG-OH) 6.00 to 6.40

Find the measured pKd of CC[C@H](C)[C@@H]1NC(=O)[C@H](CC(C)C)NC(=O)[C@H](Cc2ccccc2)NC(=O)[C@H](Cc2c[nH]c3ccccc23)NC(=O)[C@H](CCSC)NC(=O)[C@@H](N)CCCCNC(=O)C[C@@H](C(=O)O)NC(=O)[C@H](Cc2c[nH]c3ccccc23)NC(=O)[C@H](Cc2ccccc2)NC(=O)[C@H](CS)NC1=O [compound 170] (HELM PEPTIDE1{K.M.W.F.L.I.C.F.W.D}$PEPTIDE1,PEPTIDE1,1:R3-10:R3$$$V2.0) and report it. 5.00 to 6.00
